Entries and their pIC50 values follow.
# Tested on: MCF7
# procedure_text: Antiproliferative activity against human MCF7 cells after 24 hrs by MTT assay
# Type: functional, cell-based
# condition_parameters: MCF7, 24 h
Answer as the number alone; pIC50 is minus log10 of concentration in mol/L.

Prompt: Entry O=C1C(=O)N(CCn2cc(Cn3cc(Cl)c(=O)n(Cc4cn(CCN5C(=O)C(=O)c6cc(Cl)ccc65)nn4)c3=O)nn2)c2ccc(Cl)cc21 needs its pIC50 filled in; supply it.
Completion: 4.42

Prompt: Please indicate pIC50 recorded for Cc1ccc2c(c1)C(=O)C(=O)N2CCn1cc(Cn2ccc(=O)n(Cc3cn(CCN4C(=O)C(=O)c5cc(C)ccc54)nn3)c2=O)nn1
Completion: 4.29

Prompt: Tell us which pIC50 value is on record for O=C1C(=O)N(CCn2cc(Cn3ccc(=O)n(Cc4cn(CCN5C(=O)C(=O)c6ccccc65)nn4)c3=O)nn2)c2ccccc21
Completion: 4.34

###

pIC50 values by entry
# Test system: MCF7
# procedure_text: Antiproliferative activity against human MCF7 cells after 24 hrs by MTT assay
# Format: functional, cell-based
# condition_parameters: MCF7, 24 h
Would you please state pIC50, meaning minus log10 of the concentration in mol/L, as a bare number?

Solved entries (count: 3):
>  <smiles_string>
O=C1C(=O)N(CCn2cc(Cn3cc(F)c(=O)n(Cc4cn(CCN5C(=O)C(=O)c6cc(Cl)ccc65)nn4)c3=O)nn2)c2ccc(Cl)cc21

>  <measured_on>
MCF7

>  <pIC50>
4.20

$$$$
>  <smiles_string>
O=C1C(=O)N(CCCn2cc(Cn3ccc(=O)n(Cc4cn(CCCN5C(=O)C(=O)c6cc(F)ccc65)nn4)c3=O)nn2)c2ccc(F)cc21

>  <measured_on>
MCF7

>  <pIC50>
4.01

$$$$
>  <smiles_string>
O=C1C(=O)N(CCCn2cc(Cn3ccc(=O)n(Cc4cn(CCCN5C(=O)C(=O)c6ccccc65)nn4)c3=O)nn2)c2ccccc21

>  <measured_on>
MCF7

>  <pIC50>
4.25

$$$$

Now consider a different molecule.
Prompt: Let me know recorded pIC50 for O=C1C(=O)N(CCn2cc(Cn3ccc(=O)n(Cc4cn(CCN5C(=O)C(=O)c6cc(F)ccc65)nn4)c3=O)nn2)c2ccc(F)cc21 , thanks.
Completion: 4.37

###

# Tested on: MCF7
# procedure_text: Antiproliferative activity against human MCF7 cells after 24 hrs by MTT assay
# Type: functional, cell-based
# condition_parameters: MCF7, 24 h
measured_endpoint: IC50

>  <smiles_string>
O=C1C(=O)N(CCn2cc(Cn3cc(F)c(=O)n(Cc4cn(CCN5C(=O)C(=O)c6ccccc65)nn4)c3=O)nn2)c2ccccc21

>  <measured_on>
MCF7

>  <IC50>
> 100 µM

$$$$

Prompt: Identify measured IC50 associated with O=C1C(=O)N(CCn2cc(Cn3cc(Cl)c(=O)n(Cc4cn(CCN5C(=O)C(=O)c6ccccc65)nn4)c3=O)nn2)c2ccccc21
Completion: > 100 µM

Prompt: For the compound O=C1C(=O)N(CCn2cc(Cn3ccc(=O)n(Cc4cn(CCN5C(=O)C(=O)c6cc(Cl)ccc65)nn4)c3=O)nn2)c2ccc(Cl)cc21 , give its measured IC50 value.
Completion: > 100 µM
